biological target: T1, Anti-CD28 Fab (SEQ ID NOs: 202, 203); assay: phage binding ELISA, Fab on plate;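 note: clonal phage supernatant ELISA, wells preincubated with CD28 antigen or blocking buffer only, then bound phage detected using HRP-linked anti-M13 antibody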
T1 construct: biotinylated and captured on neutravidin coated plates in the phage ELISA
T1 sequence (VH, as listed by the source, chain 1 of 2): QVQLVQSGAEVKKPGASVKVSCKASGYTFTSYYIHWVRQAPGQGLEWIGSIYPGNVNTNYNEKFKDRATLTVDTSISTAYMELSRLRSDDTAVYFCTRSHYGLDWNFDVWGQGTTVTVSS
T1 sequence (VL, as listed by the source, chain 2 of 2): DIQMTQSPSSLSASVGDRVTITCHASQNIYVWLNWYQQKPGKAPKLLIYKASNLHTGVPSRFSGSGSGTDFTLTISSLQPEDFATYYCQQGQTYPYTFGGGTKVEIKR
Readings of Anti-CD28 Fab (SEQ ID NOs: 202, 203) signal for the listed binders

[ask] What value of Anti-CD28 Fab (SEQ ID NOs: 202, 203) signal has been reported for the following binder? SCAAGATYTWPMCI [Phage-1054]
[reply] 1.66

[ask] For TCSAGFSLQLSICL [Phage-1022] , what is its reported Anti-CD28 Fab (SEQ ID NOs: 202, 203) signal?
[reply] 1.77

[ask] Entry under review: RCRAGFSYNWPYCM [Phage-1041] . Reported Anti-CD28 Fab (SEQ ID NOs: 202, 203) signal?
[reply] 1.72

[ask] Need Anti-CD28 Fab (SEQ ID NOs: 202, 203) signal of TCSAGAHWTWPLCF [Phage-1044] , thanks.
[reply] 1.69

---
[ask] Entry under review: TCAAGAHWIWPWCE [Phage-1066] . Reported Anti-CD28 Fab (SEQ ID NOs: 202, 203) signal?
[reply] 1.61

[ask] For the binder TCAAGAHYEWPMCY [Phage-1063] , what Anti-CD28 Fab (SEQ ID NOs: 202, 203) signal is on record?
[reply] 1.61

[ask] Item TCAAGAAWPWPHCL [Phage-1035] has what recorded Anti-CD28 Fab (SEQ ID NOs: 202, 203) signal?
[reply] 1.73
